Recorded values, source patent US20250027068.

# TARGET ENTITY: pooled human IgG (human IgG1,2,3 and 4)
As shown below, each of these proteins has a reported Enzyme activity endpoint: Fc value.
REPORTED METRIC: Enzyme activity endpoint: Fc (ng/µL)

PROTEIN	MEASURED VALUE
PRT-673 (protein) MQITSVWTKGVTPPTPEQFRYYNEDVLHAPYKPHQGWYDITKTFNGKDNLLCGAATAGNMLHWWFDQNKTQIEAYLKKYPEKQKIIFNNQKMFDLRKAINTKDSQTNSALFSYFKDKAFPNLSARQRGVMPDLVLDMFINGYYLNVGKTQSTDVNRPYQTRDKRGGIFDHVFGRGDQTKLLTARHDLKNKTLNEISQLIKQELSEGKALALSHTYANVSISHVINLWGADFNAEGNLEAIYVTDSDSDAKIGMKKYYVGKNASGKVAISAKKIEGENIGAQVLGLYTLSTGKDIWQKLSLEHHHHHH	252
PRT-669 (protein) MQITSVWTKGVTPPTPEQFTNNNEDVFHAPYLANQGWYDITKTFNGKDNLLCGAATAGNMLHWWFDQNKEQIEAYLKKHPEKQKIIFNNQEMFDLKKAIDTKDSQTNSALFNYFRDKAFPNLSARQLGVMPDLVLDMFINGYYLNVGKTQSTDVNRPYQTKDKRGGIFDAVFTRGDQTKLLTARHDLKNKGLNEISDLIKQELTEGKALALSHTYANVRINHVINLWGADFNAEGNLIAIYVTDSDSNASIGMKKYFVGVNSAGKVAISAKKIEGDNIGAQVLGLFTLSSGQDIWQKLSLEHHHHHH	457
PRT-695 (protein) MTITTVWTKGVTPPTPEDFRYNNEDVLHAPYVPNQGWYDITKTFDGKDNLLCGAATAGNMLHWWFDQNKEEIERYLKKYPEKQKIIFNNQELFDVRAAINTKDSQTNSKLFNYFRDKAFPNLSARQLGVMPDLVLDMFINGYYLNLGKTQSTDVNRPYQDRDKRGGIFDAVFNRGDQTTLLTARHDLKNKGLNEISDLIKQELSSGKALALSHTYANVRINHVINLWGADFDAEGNLIAIYVTDSDANASIGMKKYYVGVNANGKVAISAKKIEGDNIGAQVLGLFTLSTGQDIWQKLSLEHHHHHH	433
PRT-570 (protein) MANQEIRYSEATPSHITSVWTKGVTPPEQFIQNEDVLHAPYIANQGWYDITKTFNGKDDLLCGAATAGNMLHWWFDQNKEQIEAYLKKHPEKQKINFNGEQMFDVKEAIDTKDSQTDSALFNYFKDKAFPYLSTKHLGVFPDHVIDMFINGYRLSLTNHGPTPVKEQTKDPRGGIFDAVFTRGDQSKLLTSRHDFKEKTLKEISQLIKQELTEGKALGLSHTYANVRINHVINLWGADFNAEGNLEAIYVTDSDSNASIGMKKYYVGVNSAGKVAISAKEIEGDNIGAQVLGLFTLSTGQDIWQQTNLEHHHHHH	126
